tested on: TRPC4 (transient receptor potential cation channel C4 beta), mouse; experiment: potentiation of DAMGO EC20 TRPC4 response – cell-based, second round, Fluo-4, HEK293 TRPC4beta/mu-opioid, 1 µM, confirmation (AID 2554); details: DAMGO EC20, Fluo-4 calcium flux, at 1 µM; stronger effect = higher value
Activity calls are given as the source filed them.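 How the source made its calls: active means primary screen hit whose fluorescence ratio, in both repeats, exceeds the weak agonist control mean by 3 SD; inactive means the rest.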
recordedMetric: potentiation

compound	potentiation
COc1ccc(C(=O)Nc2nc(-c3cccs3)cs2)cc1	inactive
COc1ccc(C(=O)C2CCCN(Cc3ccc(Sc4nncn4C)o3)C2)cc1F (stereo unspecified)	inactive
Cc1ccccc1OCCNc1cc(N2CCNCC2)ccc1[N+](=O)[O-]	inactive
Clc1ccc(C[n+]2cc(-c3ccccc3)n3c2CCC3)cc1Cl	inactive

Task: Read off the recorded potentiation for Cc1c(CN2CCC(n3nccc3NC(=O)CCc3ccccc3)CC2)cnn1C
Output: inactive

Task: Read off the recorded potentiation for CCN(CC(=O)NCc1ccc(Cl)cc1)CC(=O)NC1(C#N)CCCC1
Output: inactive

----------
assay: serotonin-gated TRPC4 signal block – cell-based, second counter screen, HEK293 TRPC4/5HT1a, Fluo-4, counter-screen for TRPC4 inhibitor project, confirmation (AID 434978); conditions: Fluo-4 calcium flux, at 10 µM, serotonin added to trigger calcium flux
Calls of active or inactive are those of the source.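 How the source made its calls: active means primary screen active whose calcium signal fell more than 3 SD beyond the full-serotonin control mean in both duplicate plates; inactive means the rest.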
Hi! Could you answer with just one of these? active, inactive

Example entries begin here.
compound	classification
Cc1cc(N2CCC(C)CC2)nc2cccc(O)c12	inactive
CC1(C#CC[N+]2(C)CCCCC2)CCC2C(O1)c1ccccc1OC2(C)C (stereo not drawn)	inactive
CNC(=O)COc1ccc2oc3c(c2c1)CCCC3	active
O=C(CC1C(=O)NCCN1Cc1ccc(-c2ccccc2)cc1)NCCc1ccccn1 (stereo not drawn)	inactive
CCOc1cccc(CNCCO)c1OCc1ccc(Cl)cc1	active

Task: What did this assay record as the result for Cc1cc(C)c(S(=O)(=O)N2CCN(C)CC2)c(C)c1 ?
Output: inactive

Task: What did this assay record as the result for O=C(Nc1nnc2n1CCS2)c1ccc(Br)o1 ?
Output: inactive

Task: What did this assay record as the result for CCOc1ccccc1C1CC(c2ccc(Cl)cc2)Nc2nc(N)nn21 (stereo not drawn) ?
Output: inactive

Task: What did this assay record as the result for Cc1cc(SCC(=O)c2cccc([N+](=O)[O-])c2)nc(=O)[nH]1 ?
Output: inactive

Task: What did this assay record as the result for Clc1cc(/C=N\NC2=NCCN2)cc(Cl)n1 ?
Output: inactive

----------
test system: TRPC4 (mouse), co-expressed with 5HT1a in HEK293; experiment: enhancement of serotonin-evoked TRPC4 response – cell-based, second counter screen, HEK293 TRPC4/5HT1a, Fluo-4, counter-screen for TRPC4 potentiator project, confirmation (AID 434979); settings: Fluo-4 calcium flux, at 10 µM, serotonin added at its EC20 dose
Activity calls are given as the source filed them.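 The calls were made as follows: active = signal rise over 3 SD above mean of control wells given weak agonist, in both repeats and first screen; inactive = the rest.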
Hi! Could you answer with just one of these? active, inactive

Example entries begin here.
compound	classification
CC1CCN(CCOCCOc2ccccc2-c2ccccc2)CC1	inactive
Cc1oc(-c2ccc(Cl)cc2)nc1CN1CCC(C(=O)N2CCc3ccccc3C2)CC1	active
O=C(NCCCN1CCN(CCCNC(=O)c2cccc(Cl)c2)CC1)c1cccc(Cl)c1	active
CN(C)c1ccc(/C=C/C(=O)c2c(O)c3ccccc3oc2=O)cc1	inactive
COc1cccc(NC(=O)COc2c(F)c(F)c(C(F)(F)F)c(F)c2F)c1	inactive
CCn1c(C)nc2cc(C(=O)N/N=C/c3cccc(O)c3O)ccc21	active

Task: What did this assay record as the result for CC(=O)NC(CC(=O)NCC(c1ccco1)N(C)C)c1ccccc1 (stereo unspecified) ?
Output: inactive

Task: What did this assay record as the result for Oc1ccc(Nc2nc(N3CCCC3)c3ccccc3n2)cc1 ?
Output: inactive

Task: What did this assay record as the result for COc1cc(CNC2CCCCCCC2)cc(Br)c1OCC#N ?
Output: inactive

Task: What did this assay record as the result for O=C(c1sc2ccccc2c1Cl)N(Cc1ccccc1)C1CCS(=O)(=O)C1 (stereo unspecified) ?
Output: inactive

Task: What did this assay record as the result for Cc1cc(N2CCOCC2)nc(NCc2ccccc2)n1 ?
Output: inactive
